# GI50 per entry
System: SW-620 colon
Assay: NCI tumour cell line growth inhibition, 48 h
Measurement Label: GI50

INSERT INTO assay_data (compound, target_entity, value_observed) VALUES
  ('Cc1ccc(C=C2C(Cl)=C(Cl)C(Cl)=C2Cl)cc1', 'SW-620 colon', '339 nM'),
  ('COC1=C(C)C(=O)c2c(c(CCCl)c3n2CCC3OC(C)=O)C1=O (stereo unspecified)', 'SW-620 colon', '453 nM'),
  ('O=c1c2ccccc2c(/C=N\NC2=NCCN2)c2oc3ccccc3n12', 'SW-620 colon', '22100 nM'),
  ('NC(=S)N/N=C1\c2ccccc2-c2c(F)c(F)c(F)c(F)c21', 'SW-620 colon', '1790 nM'),
  ('CC1(C)N=C(N)N=C(N)N1c1ccc(OCCCNC(=O)Nc2cccc(S(=O)(=O)F)c2)c(Cl)c1', 'SW-620 colon', '1640 nM'),
  ('CC(C)(c1ccccc1)c1cc(O)c(C(C)(C)c2ccccc2)cc1O', 'SW-620 colon', '2770 nM');
